Assign mass density to each entry below.
- condition-summary: 306.15 K; 100 kPa; Liquid; Vibrating tube method
Use kg/m3 as the unit, but write only the number.

Give its mass density value. Item: CCCC[N+]1(C)CCCC1.O=S(=O)([N-]S(=O)(=O)C(F)(F)F)C(F)(F)F
1388

How about this molecule: CC[P+](CC)(CC)CCOC.O=S(=O)([N-]S(=O)(=O)C(F)(F)F)C(F)(F)F
1370

Proceed to CCCC[N+]1(C)CCCCC1.O=S(=O)([N-]S(=O)(=O)C(F)(F)F)C(F)(F)F
1375

Next up: CCCCC[P+](CC)(CC)CC.O=S(=O)([N-]S(=O)(=O)C(F)(F)F)C(F)(F)F
1297
